The reader will find reported inhibition values listed item by item below.
# study-system: Virion infectivity factor (Human immunodeficiency virus type 1 group M subtype B (isolate BH10)) + Virion infectivity factor (Human immunodeficiency virus type 1 group M subtype B (isolate BRU/LAI)) + Virion infectivity factor (Human immunodeficiency virus type 1 group M subtype B (isolate PCV12)) + Virion infectivity factor (Human immunodeficiency virus type 1 group M subtype B (isolate HXB2)) + DNA dC->dU-editing enzyme APOBEC-3G (Homo sapiens) (UniProt P69720+P69721+P69722+P69723+Q9HC16)
# experiment: inhibitors of Vif binding to APOBEC3G peptide, primary screen, biochemical, TR-FRET, GST-Vif 1-94, biotin-A3G peptide, dose response retest (AID 1117319);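 further: Vif residues 1-94 fused to GST binding biotinylated APOBEC3G peptide 110-148; 0% = full assay without inhibitor and 100% = GST in place of GST-Vif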
# recorded-conditions: active compounds read high
The campaign covered roughly 260,000 compounds. About 1,500 (0.58%) were called active. Not shown: some 5% with an inconclusive outcome. These entries were drawn from the full list. Results with a measured potency or affinity are listed apart.

molecule | inhibition
CCc1cc2cc(C)ccc2nc1SCC(=O)N1CCN(C(=O)c2ccco2)CC1 | 3.37% (inactive)
O=C1CC(Nc2ccc(N3CCOCC3)cc2)C(=O)N1c1ccccc1 (centres undefined) | 16.9% (inactive)
CC(=O)Nc1ccc(S(=O)(=O)Nc2nc3ccccc3nc2Nc2cccc(O)c2)cc1 | 6.78% (inactive)
C/C(=N\NC(=O)c1ccc([N+](=O)[O-])cc1)c1cc2ccccc2oc1=O | 13.4% (inactive)
O=C(CN1C(=O)C(=O)N(C2CCCC2)C1=O)Nc1ccc(N2CCOCC2)cc1 | -7.86% (inactive)
COC(=O)CNC(=O)C(C)(C)Oc1ccc(Cl)cc1 | -6.52% (inactive)
C=CCN1C(=O)/C(=C\c2cccs2)C(C(=O)OC)=C1C | 0.55% (inactive)
Nc1cc(S(=O)(=O)Nc2ccc(Cl)cc2)ccc1N1CCOCC1 | 0.79% (inactive)
O=C(NCCc1ccccc1)C1CCN(S(=O)(=O)c2cccc3nsnc23)CC1 | -0.39% (inactive)
COc1ccc2c(c1)CC/C(=C/c1ccccn1)C2=O | -2.19% (inactive)
CCOc1ncccc1C(=O)OCC(=O)c1c(N)n(C)c(=O)n(C)c1=O | -0.62% (inactive)
COc1ccccc1OCC(=O)NCc1ccco1 | 8.05% (inactive)
CN(C)Cc1c(C(=O)N/N=C/c2cccc(OCc3ccccc3)c2)nnn1-c1nonc1N | 19.4% (inactive)
Cc1cccc(OCc2nnc(SCC(=O)Nc3ccc(C)c(Cl)c3)o2)c1 | -12% (inactive)
COc1cccc(C(C)=NNc2ccc([N+](=O)[O-])cc2[N+](=O)[O-])c1OC | 0.32% (inactive)
CCOC(=O)C1CCN(Cc2cnc(Oc3ccc(N)cc3)s2)CC1 | 3.48% (inactive)
COc1ccc(CNC(=O)COC(=O)c2cccc(S(=O)(=O)N3CCOCC3)c2)cc1 | 10.9% (inactive)
Cc1cc(C(=O)N2CCc3c([nH]c4ccccc34)C2c2c(F)cccc2Cl)no1 (centres undefined) | -4.57% (inactive)
Cc1nc(SC(C)C(=O)c2c(N)n(C)c(=O)n(C)c2=O)c2c(C)c(C)sc2n1 (centres undefined) | -0.67% (inactive)
COc1ccc(C(OCC(O)CNCCc2ccc(S(N)(=O)=O)cc2)c2ccc(OC)cc2)cc1 (centres undefined) | -0.36% (inactive)
O=C(COC(=O)Cc1ccc(F)cc1)NCc1ccco1 | -14.6% (inactive)
CCOc1cccc2sc(NC(=O)c3ccc(Br)s3)nc12 | -37.3% (inactive)
CSCCC(NC(=O)/C(=C\c1ccc(Cl)cc1)NC(=O)c1ccccc1)C(=O)O (centres undefined) | 1.24% (inactive)
Cc1cccc(NC(=O)Cn2cnc3c(oc4ccccc43)c2=O)c1 | 4.28% (inactive)
Cc1ccc(-c2cc(N)n(-c3ccc(C)cc3)n2)cc1 | -11.3% (inactive)
C=C(C)COc1ccc2c(CC)cc(=O)oc2c1C | -15.7% (inactive)
CC(=O)c1ccc(N2CCC(C(=O)O)CC2)cc1 | 6.29% (inactive)
COc1cc(OC)cc(C(=O)NCC(=O)OCc2nc3ccccc3s2)c1 | 5.21% (inactive)
CCOc1ccc(-n2c(=O)c3c4c(sc3n(CC(=O)NCc3ccco3)c2=O)CCC4)cc1 | -4.88% (inactive)
O=C(CNC(=O)c1ccc(Cl)cc1)OCN1C(=O)c2ccccc2C1=O | -9.8% (inactive)
Cc1cc(C(=O)OC(C)C(=O)NC2CCCCC2C)c2ccccc2n1 (centres undefined) | -2.6% (inactive)
COc1c(C)cc(C(=O)C2CCCN(C(=O)c3cc(C)nc(C)n3)C2)cc1C (centres undefined) | -12.6% (inactive)
CN1CCC(N(C)C(=O)COc2ccccc2Cl)CC1 | -7.89% (inactive)
O=C(COC(=O)Cc1ccc(Cl)c(Cl)c1)NCc1ccco1 | 7.25% (inactive)
Cc1nc([N+](=O)[O-])cn1CC(=O)c1ccc(F)cc1 | -8.97% (inactive)
CCOC(=O)c1c(C)[nH]c(C(=O)OCC(=O)N2CCN(S(=O)(=O)c3ccc(C)cc3C)CC2)c1C | -6.76% (inactive)
Cc1ccc(CN2C(=O)CC(Nc3ccc(N4CCOCC4)cc3)C2=O)cc1 (centres undefined) | 4.98% (inactive)
CCOC(=O)C1CCN(Cc2cnc(Oc3ccc(C(C)(C)C)cc3)s2)CC1 | 28.3% (inactive)
COC(=O)C1=C(C)N(CC(C)C)C(=O)/C1=C\c1cccs1 | 2.91% (inactive)
COC(=O)c1nn(-c2ccc(Oc3ccccc3)cc2)c(=O)cc1O | 2.63% (inactive)
O=C(O)COc1ccccc1-c1ccccc1 | -0.72% (inactive)
CCN(CC)S(=O)(=O)c1ccc(N2CCOCC2)c(NC(=O)CCC2CCCCC2)c1 | -9.59% (inactive)
COc1ccc(NC2CC(=O)N(C(C)C)C2=O)cc1 (centres undefined) | 1.77% (inactive)
Cc1cc(C(=O)N/N=C/c2ccc(-c3cccc(Cl)c3)o2)n[nH]1 | -2.03% (inactive)
